assayed.target: T1, IL-36R naturally expressed on OVCAR8 cells and on normal human epidermal keratinocytes (NHK cells) (human, UniProt Q9HB29 20-575)
T1 sequence (looked up): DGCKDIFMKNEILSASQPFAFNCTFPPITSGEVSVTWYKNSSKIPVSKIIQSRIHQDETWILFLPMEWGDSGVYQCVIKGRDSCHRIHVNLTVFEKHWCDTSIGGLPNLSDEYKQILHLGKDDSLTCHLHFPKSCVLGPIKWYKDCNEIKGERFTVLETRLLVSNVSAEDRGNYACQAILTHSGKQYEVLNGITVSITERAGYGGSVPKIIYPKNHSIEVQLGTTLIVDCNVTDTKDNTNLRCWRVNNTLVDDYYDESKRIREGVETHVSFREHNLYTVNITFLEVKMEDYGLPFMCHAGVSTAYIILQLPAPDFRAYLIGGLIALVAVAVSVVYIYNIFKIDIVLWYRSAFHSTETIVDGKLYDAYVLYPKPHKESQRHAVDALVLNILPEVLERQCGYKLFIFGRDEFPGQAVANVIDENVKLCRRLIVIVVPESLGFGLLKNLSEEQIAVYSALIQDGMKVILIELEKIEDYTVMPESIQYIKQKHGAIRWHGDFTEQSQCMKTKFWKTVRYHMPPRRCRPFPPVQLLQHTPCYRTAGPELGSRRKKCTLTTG
test.summary: cell-based or functional assay
endpoint.label: IC50 (M); hIL36γ; IL-8 production
Answers are plain numbers, in M.

Query string: Please report the recorded IC50 (M); hIL36γ; IL-8 production for hz84C4-1.4 (antibody, human IgG4 S228P, kappa, V domains shown, Humanized, human IgG4 / kappa) VH: QVQLVQSGAEVKKPGASVKVSCKASGYYFTSYWMNWVRQAPGQGLEWMGMIHPYDSETRLAQKFKGRVTMTVDKSTSTVYMELSSLRSEDTAVYYCASSTTAFAYWGQGTLVTVSS VL: DIQMTQSPSSLSASVGDRVTITCRASQDIGNALNWYQQKPGKAPKRLIYATSSLDPGVPSRFSGSRSGTDFTLTISSLQPEDFATYYCLQYASSPYTFGQGTKVEIKR .
Result string: 5.01e-12
